Provenance of the data: ChEMBL document CHEMBL1126489

So I've got a bunch of compounds here, and I need their IC50 values.
Target: Angiotensin II receptor (Rattus norvegicus, UniProt P29089+P25095+P35351)
Sequence (P29089 whole entry): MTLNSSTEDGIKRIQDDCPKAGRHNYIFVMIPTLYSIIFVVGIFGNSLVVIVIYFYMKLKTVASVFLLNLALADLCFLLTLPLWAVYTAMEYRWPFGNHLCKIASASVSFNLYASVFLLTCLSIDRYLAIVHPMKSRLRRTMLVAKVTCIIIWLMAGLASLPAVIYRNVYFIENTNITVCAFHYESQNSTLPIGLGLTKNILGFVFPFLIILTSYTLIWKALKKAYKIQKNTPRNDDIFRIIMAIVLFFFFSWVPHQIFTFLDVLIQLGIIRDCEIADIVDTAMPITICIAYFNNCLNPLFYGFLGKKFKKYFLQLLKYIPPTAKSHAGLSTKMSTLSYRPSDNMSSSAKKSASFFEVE
Sequence (P25095 whole entry): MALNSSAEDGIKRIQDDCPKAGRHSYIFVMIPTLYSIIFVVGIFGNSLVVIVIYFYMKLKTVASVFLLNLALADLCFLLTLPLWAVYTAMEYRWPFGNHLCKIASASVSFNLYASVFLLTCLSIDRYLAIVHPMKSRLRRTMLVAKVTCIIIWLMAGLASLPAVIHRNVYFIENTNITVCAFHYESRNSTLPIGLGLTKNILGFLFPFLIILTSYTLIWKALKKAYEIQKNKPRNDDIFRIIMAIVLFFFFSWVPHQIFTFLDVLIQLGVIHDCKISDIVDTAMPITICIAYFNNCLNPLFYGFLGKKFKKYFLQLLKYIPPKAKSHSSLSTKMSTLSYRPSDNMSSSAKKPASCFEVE
Sequence (P35351 whole entry): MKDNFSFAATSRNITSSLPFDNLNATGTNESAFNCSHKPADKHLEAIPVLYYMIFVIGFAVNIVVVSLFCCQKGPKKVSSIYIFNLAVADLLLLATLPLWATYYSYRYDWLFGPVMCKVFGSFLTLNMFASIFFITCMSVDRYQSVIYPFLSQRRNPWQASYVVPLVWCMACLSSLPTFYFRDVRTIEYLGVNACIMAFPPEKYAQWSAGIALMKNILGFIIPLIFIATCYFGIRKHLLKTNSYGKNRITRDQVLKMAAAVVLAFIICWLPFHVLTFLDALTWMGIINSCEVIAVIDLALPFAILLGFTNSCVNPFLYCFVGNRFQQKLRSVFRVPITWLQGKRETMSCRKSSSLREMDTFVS
Experiment: Inhibition of [125I]-AII binding to Angiotensin II receptor of rat uterine membrane
Please answer using the number first and the unit second.

Prompt line: Request - read-out IC50 | tested on Angiotensin II receptor (Rattus norvegicus, UniProt P29089+P25095+P35351) | compound CCCCc1cn(-c2ccccc2CC)c(=O)n1Cc1ccc(-c2ccccc2-c2nn[nH]n2)nc1
Response line: 4.5 nM

Prompt line: Request - read-out IC50 | tested on Angiotensin II receptor (Rattus norvegicus, UniProt P29089+P25095+P35351) | compound CCCCc1cn(-c2ccccc2C)c(=O)n1Cc1ccc(-c2ccccc2-c2nn[nH]n2)nc1
Response line: 9.4 nM

Prompt line: Request - read-out IC50 | tested on Angiotensin II receptor (Rattus norvegicus, UniProt P29089+P25095+P35351) | compound CCCCc1cn(-c2ccccc2C(C)C)c(=O)n1Cc1ccc(-c2ccccc2-c2nn[nH]n2)nc1
Response line: 14 nM

Prompt line: Request - read-out IC50 | tested on Angiotensin II receptor (Rattus norvegicus, UniProt P29089+P25095+P35351) | compound CCCCc1cn(-c2ccccc2)c(=O)n1Cc1ccc(-c2ccccc2-c2nn[nH]n2)nc1
Response line: 45 nM

Prompt line: Request - read-out IC50 | tested on Angiotensin II receptor (Rattus norvegicus, UniProt P29089+P25095+P35351) | compound CCCCC1=NC2(CCCC2)C(=O)N1Cc1ccc(-c2ccccc2-c2nnn[nH]2)cc1
Response line: 1.3 nM
